- System Under Test: T1, CypA R55A mutant (UniProt P62937 1-165, R55A)
- T1 construct: Cyclophilin A (CypA) with R55A; the R55A mutant corresponding to His-tagged CypA; The starting construct carried a Myc tag; also called R55A CypA mutant; R55A mutated CypA; source: prepared starting from the construct pCMV6-AC-Myc-CypA^R55A
- T1 sequence (P62937 whole entry R55A): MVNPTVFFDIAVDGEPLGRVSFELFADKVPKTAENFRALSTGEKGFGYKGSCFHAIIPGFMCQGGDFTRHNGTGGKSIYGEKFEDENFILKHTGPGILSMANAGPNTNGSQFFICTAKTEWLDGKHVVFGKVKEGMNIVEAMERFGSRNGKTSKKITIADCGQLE
- Protocol: EnSpire label-free direct binding assay; direct binding of CypA peptides, CypA or CypA R55A with AIF(370-394) or AIF(Δ1-121); details (who was immobilised) in the Supplementary Information
- Stated Conditions: both partners purified
Measured Parameter: Kd (µM)
Numbers only; they are read as µM.

The binder listed as QSVGVSSGKLLIKLKDGRKVETDHI (peptide, UniProt O95831 370-394, looked up, also called AIF peptide; source: synthetic peptide) [AIF(370-394) synthetic peptide] shows Kd equal to 3.1

Every entry's value here was drawn from paper PMC5430804.
